Where do these numbers come from? They come from patent US4914187A.

assay: pKa by titration; type: physicochemical; settings: methylcellulose ®/water 4:1 (v/v), excess 0.01 M hydrogen chloride, titrated with 0.01 M NaOH
Measured pKa, listed per entry.

Could you tell me which pKa is on file for CC(=O)N[C@H]1[C@H](OC2c3ccc(c(Cl)c3)Oc3cc4cc(c3O)Oc3ccc(cc3Cl)CC3NC(=O)C(N)c5ccc(O)c(c5)Oc5cc(O)cc(c5)C(NC3=O)C(=O)NC4C(=O)NC3C(=O)NC2C(=O)NC(C(=O)OCCCl)c2cc(O)cc(O)c2-c2cc3ccc2O)O[C@H](CO)[C@@H](O)[C@@H]1O.Cl (some centres unmarked) ?
6.67

Follow-up item: CC(=O)N[C@H]1[C@H](OC2c3ccc(c(Cl)c3)Oc3cc4cc(c3O)Oc3ccc(cc3Cl)CC3NC(=O)C(N)c5ccc(O)c(c5)Oc5cc(O)cc(c5)C(NC3=O)C(=O)NC4C(=O)NC3C(=O)NC2C(=O)NC(C(=O)OCCCCCl)c2cc(O)cc(O)c2-c2cc3ccc2O)O[C@H](CO)[C@@H](O)[C@@H]1O.Cl (some centres unmarked)
6.66

###

tested on: S. aureus TOUR; experiment: agar-dilution MIC test; format: cell-based; details: S. aureus TOUR + 30% bovine serum
reported-endpoint: MIC (µg/mL)
Numbers only here, please. The scale is µg/mL.

Take a look at these entries with their results.
compound	unit-of-measurement	MIC
CCOC(=O)C1NC(=O)C2NC(=O)C(NC(=O)C3NC(=O)C4NC(=O)C(Cc5ccc(c(Cl)c5)Oc5cc3cc(c5O)Oc3ccc(cc3Cl)C2O[C@@H]2O[C@H](CO)[C@@H](O)[C@H](O)[C@H]2NC(C)=O)NC(=O)C(N)c2ccc(O)c(c2)Oc2cc(O)cc4c2)c2ccc(O)c(c2)-c2c(O)cc(O)cc21.Cl (some centres unmarked) [Example 2]	µg/mL	0.5
CC(=O)N[C@H]1[C@H](OC2c3ccc(c(Cl)c3)Oc3cc4cc(c3O)Oc3ccc(cc3Cl)CC3NC(=O)C(N)c5ccc(O)c(c5)Oc5cc(O)cc(c5)C(NC3=O)C(=O)NC4C(=O)NC3C(=O)NC2C(=O)NC(C(=O)OCc2ccccc2)c2cc(O)cc(O)c2-c2cc3ccc2O)O[C@H](CO)[C@@H](O)[C@@H]1O.O=C(O)C(F)(F)F (some centres unmarked) [Example 8]	µg/mL	4
CCCCOC(=O)C1NC(=O)C2NC(=O)C(NC(=O)C3NC(=O)C4NC(=O)C(Cc5ccc(c(Cl)c5)Oc5cc3cc(c5O)Oc3ccc(cc3Cl)C2O[C@@H]2O[C@H](CO)[C@@H](O)[C@H](O)[C@H]2NC(C)=O)NC(=O)C(N)c2ccc(O)c(c2)Oc2cc(O)cc4c2)c2ccc(O)c(c2)-c2c(O)cc(O)cc21.Cl (some centres unmarked) [Example 3]	µg/mL	0.5
CC(=O)N[C@H]1[C@H](OC2c3ccc(c(Cl)c3)Oc3cc4cc(c3O)Oc3ccc(cc3Cl)CC3NC(=O)C(N)c5ccc(O)c(c5)Oc5cc(O)cc(c5)C(NC3=O)C(=O)NC4C(=O)NC3C(=O)NC2C(=O)NC(C(=O)OCCO)c2cc(O)cc(O)c2-c2cc3ccc2O)O[C@H](CO)[C@@H](O)[C@@H]1O.O=C(O)C(F)(F)F (some centres unmarked) [Example 12]	µg/mL	0.5

Now take the following compound into account.
Recorded MIC for CC(=O)N[C@H]1[C@H](OC2c3ccc(c(Cl)c3)Oc3cc4cc(c3O)Oc3ccc(cc3Cl)CC3NC(=O)C(N)c5ccc(O)c(c5)Oc5cc(O)cc(c5)C(NC3=O)C(=O)NC4C(=O)NC3C(=O)NC2C(=O)NC(C(=O)OCCCCCl)c2cc(O)cc(O)c2-c2cc3ccc2O)O[C@H](CO)[C@@H](O)[C@@H]1O.Cl (some centres unmarked) [Example 5] with S. aureus TOUR, please?
0.5
